B1: HDV Ribozyme (parent)
chain: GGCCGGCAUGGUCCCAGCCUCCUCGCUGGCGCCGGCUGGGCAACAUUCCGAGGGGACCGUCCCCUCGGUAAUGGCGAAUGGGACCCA

Variants of: B1
Experiment: self-cleavage, relative activity (ratio to wild type); higher = more cleavage; co-transcriptional
Outcome: YES for self-cleavage of at least 0.4; NO for anything lower.

*Q* State whether the measured self-cleavage reaches 0.4, counting equality as reaching it, for GGCUGGCAUGGUCCCAGCCUCCUCGCGGGCGCCGGCUGGGCAACAUUCCGAGGGGACCGUCCCCUCGGUAAUGGCGAAUGGGACCCA [C4U U27G]
*A* YES

*Q* Identify whether the reported self-cleavage of the following variant is 0.4 or greater: GGCCGGUAUGGUCCCAGGCUCCUCGCUGGCGCCGGCUGGGCAACAUUCCGAGGGGACCGUCCCCUCGGUAAUGGCGAAUGGGACCCA [C7U C18G]
*A* NO

*Q* API: above_or_equal(metric=self-cleavage, cutoff=0.4) for item GGCCGGCAUGGUCCCAGCCUCCUCGCUGGCGCCGGCUGGGCAACAUUCCGAGGUGACCGUCCCCUCGGUAAUGGCGAAUGGGACCCA [G54U]
*A* YES

*Q* Could you verify whether the entry GGCCGGCAUGGUCCCAGCCUCCUCGCUGGCGCCGGCUGGGCAAAAUUCCGAGGGGACAGUCCCCUCGGUAAUGGCGAAUGGGACCCA [C44A C58A] shows self-cleavage of no less than 0.4?
*A* YES

*Q* Reported self-cleavage at or above 0.4? GGCCGGCAGGGUCCCAUCCUCCUCGCUGGCGCCGGCUGGGCAACAUUCCGAGGGGACCGUCCCCUCGGUAAUGGCGAAUGGGACCCA [U9G G17U]
*A* YES

*Q* Decide: self-cleavage of GGCCGGCAUGGUCUCAGCCUCCUCGCUGGCGCCGGCUGGGGAACAUUCCGAGGGGACCGUCCCCUCGGUAAUGGCGAAUGGGACCCA [C14U C41G] >= 0.4?
*A* YES

*Q* Could you verify whether the entry GGCCGGCAUGGUCCCAGACUCCUCGCUGGCGCCGGCUGGGCAACAUUCCGCGGGGACCGUCCCCUCGGUAAUGGCGAAUGGGACCCA [C18A A51C] shows self-cleavage of no less than 0.4?
*A* NO

*Q* Determine whether this variant has self-cleavage no lower than 0.4: GGCCGGCAUGGUCCCAGCCUCCUCGCUGGCGCCGGCUGGGCAACUUUCCGAGGGGACCGUCCCCUCGGUAAUGGCGAAUGCGACCCA [A45U G81C]
*A* NO
